- Test target: AoraGOBP2
- Assay explanation: Fluorescence competitive binding assay (1-NPN probe) with rAoraGOBP2
- Design: species or system Adoxophyes orana
- Condition: competitive displacement of 1-NPN, 2 μM protein, 20 mM Tris-HCl pH 7.4, mean ± S.E.M.; read-out: Ki (μM) GOBP2
Record form. Attribute: Ki. Fill in for each entry.

input: Lookup: Ki / AoraGOBP2 / `CC(C)=CCC/C(C)=C/CC/C(C)=C/CO`
output: 1.13 µM

input: Find Ki (AoraGOBP2) for the entry CCCC/C=C\CCCCCCCCOC(C)=O [Z9-14:Ac, (Z)-9-tetradecenyl acetate]
output: 6.46 µM

input: Query Ki on AoraGOBP2 for `CCCCCCCCCCCCO`
output: 1.74 µM

input: Can you look up Ki on AoraGOBP2 for CCCCOC(=O)c1ccccc1C(=O)OCCCC [Dibutyl phthalate] ?
output: 5.33 µM

input: Lookup: Ki / AoraGOBP2 / CCCC/C=C\CCCCCCCCO [Z9-14:OH, (Z)-9-tetradecen-1-ol]
output: 1.49 µM

// data source = paper PMC12470260
